Hey, just so you know, these numbers are from patent US20180171001A1.

Documented neutralization IC50 across a set of binders
- tested.system: Env of HIV-1 strain Du172.17 (HIV-1)
- protocol: cell-based or functional assay
property.label: neutralization IC50

>>> obs_value("γ52κ18 (antibody, V domains shown) VH: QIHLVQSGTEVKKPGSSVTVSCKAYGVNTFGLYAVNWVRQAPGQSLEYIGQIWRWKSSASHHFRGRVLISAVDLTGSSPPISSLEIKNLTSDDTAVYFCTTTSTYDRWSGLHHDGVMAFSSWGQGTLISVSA VL: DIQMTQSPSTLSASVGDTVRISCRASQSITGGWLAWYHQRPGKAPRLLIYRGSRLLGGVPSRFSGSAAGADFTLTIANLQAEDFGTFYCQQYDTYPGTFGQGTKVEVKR")
"> 15 µg/mL"
>>> obs_value("γ22κ18 (antibody, V domains shown) VH: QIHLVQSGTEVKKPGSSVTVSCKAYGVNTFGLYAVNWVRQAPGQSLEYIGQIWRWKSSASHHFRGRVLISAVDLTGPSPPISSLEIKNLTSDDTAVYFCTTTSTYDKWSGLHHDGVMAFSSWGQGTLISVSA VL: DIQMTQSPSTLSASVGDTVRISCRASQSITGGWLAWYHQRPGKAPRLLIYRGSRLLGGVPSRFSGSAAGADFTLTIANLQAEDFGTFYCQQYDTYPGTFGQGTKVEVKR")
"> 15 µg/mL"
>>> obs_value("γ15κ11 (antibody, V domains shown) VH: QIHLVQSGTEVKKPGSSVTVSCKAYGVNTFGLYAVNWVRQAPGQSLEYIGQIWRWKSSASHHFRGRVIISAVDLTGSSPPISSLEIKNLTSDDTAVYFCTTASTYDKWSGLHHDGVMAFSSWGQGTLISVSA VL: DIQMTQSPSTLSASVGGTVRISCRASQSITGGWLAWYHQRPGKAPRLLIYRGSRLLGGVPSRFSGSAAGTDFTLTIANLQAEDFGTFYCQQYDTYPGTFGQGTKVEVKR")
"> 15 µg/mL"
>>> obs_value("γ8κ11 (antibody, V domains shown) VH: QIHLVQSGTGVKKPGSSVTVSCKAYGVNTFGLYAVNWVRQAPGQGLEYIGQIWRWKSSASHHFRGRVLISAVDLTGSSPPITSLEIKNVTSDDTAVYFCTTTSTYDKWSGLYHDGVMAFSSWGQGTLISVSA VL: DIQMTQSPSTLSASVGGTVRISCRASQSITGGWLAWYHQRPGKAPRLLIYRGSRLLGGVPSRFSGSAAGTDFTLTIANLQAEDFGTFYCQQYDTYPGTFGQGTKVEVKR")
"> 15 µg/mL"
>>> obs_value("8ANC3430 (antibody, V domains shown) VH: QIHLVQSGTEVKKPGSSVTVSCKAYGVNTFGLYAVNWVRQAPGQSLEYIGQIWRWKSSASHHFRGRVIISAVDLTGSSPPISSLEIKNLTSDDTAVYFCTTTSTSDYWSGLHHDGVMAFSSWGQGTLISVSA VL: DIQMTQSPSTLSASVGDTVRISCRASQSITGGWLAWYHQRPGKAPRLLIYRGSRLLGGVPSRFSGSAAGTDFTLTIANLQAEDFGTFYCQQYDTYPGTFGQGTKVEVKR")
"> 23 µg/mL"
